B1: WDR88 (parent)
chain: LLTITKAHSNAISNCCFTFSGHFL

Variants of: B1
experiment-notes: protein stability index of a GFP-peptide fusion (GPS, HEK-293T) (PSI 1-6); higher = more stable;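 also: lentivirally expressed fusions sorted by FACS into six bins by GFP to DsRed ratio, PSI derived from sequencing read proportions per bin multiplied by bin number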
reported-conditions: c terminus: a fixed tail appended
Could you please report measured protein stability index for the items listed next?
One number for each entry.

{"residue-change": "G21N", "measured-metric": "protein stability index", "experimental-result": 2.42}

Please give protein stability index, item by item, for the list that follows.
1. H8E
2. F19E
3. G21I
4. L1E
5. L1W
6. G21M
7. F19Y

2.27
1.77
2.97
1.76
3.03
3.69
2.82

Please give protein stability index, item by item, for the list that follows.
1. T18K
2. S13G
3. F23Q

2.33
2.7
1.79
